Source of measurements: patent US20170165337A1

- target.system: T1, HLA-A*02:01 (human)
- T1 construct: MHC class I monomer of the UV-ligand exchange assay; also called peptide-receptive MHC molecules; MHC class I
- protocol.description: UV peptide-exchange ELISA
assay.metric: peptide exchange yield

MLLEHGITL    50 to 75%

Looking up YLDDLLPKL , I see its peptide exchange yield listed as 50 to 75%
